Numbers sourced from patent US20240252677A1.

# assay.details: Dimensions (size, PDI) of DNPs co-assembled from IAJDs and Luc-mRNA by DLS
# Assay type: physicochemical
# setup.conditions: Table 16; DNPs from IAJD 4 mg/mL and Luc-mRNA 0.10 mg/mL by injection in acetate buffer (10 mM, pH 4.0)
outcome.measure: Size (d, nm)

Observe how each entry below is paired with its result.
>>> numeric_readout("CCCCCCCCCCCCCCCOc1cc(COC(=O)CCCN2CCN(CCO)CC2)cc(OCCCCCCCCCCCC)c1")
236
>>> numeric_readout("CCCCCCCCCCCCCCCOc1cc(COC(=O)CCCN2CCN(C)CC2)cc(OCCCCCCCCCC)c1")
158
>>> numeric_readout("CCCCCCCCCCCCCCCCOc1cc(COC(=O)CCCN2CCN(C)CC2)cc(OCCCCCCCCCCCCC)c1")
139

a = CCCCCCCCCCCCCCCCOc1cc(COC(=O)CCCN2CCN(C)CC2)cc(OCCCCCCCCCCCCCCC)c1
b = CCCCCCCCCCCCOc1cc(COC(=O)CCCN2CCN(CCO)CC2)cc(OCCCCCCCCCCC)c1
// query Parameter metric = Size (d, nm). Return the lower-valued option from a and b . Give the label under which the chosen entry appears.
// result a
(a: 193 nm, b: 276 nm)
